- Tested on: OVCAR-8 ovarian
- assay-details: NCI-60 one-dose screen, 48 h
- experimental-context: 10 µM unless noted
The panel holds about 83,000 compounds, 20% with a hit somewhere; the sample as a whole holds those more often. Calls of active or inactive are those of the source. Rule for the calls: active = growth percent below 10; inactive = the rest.
Pick one and only one: label 1 = active, label 0 = inactive

query: Assay outcome for `O=C(O)c1cn(C2CC2)c2cc(N3CCN(C(=O)C[n+]4ccccc4)CC3)c(F)cc2c1=O` : what was it?
result: label 0

query: Assay outcome for `CN1CCN(Cc2ccc(C(=O)Nc3cncc(C#Cc4cnc(N)c5ccccc45)c3)cc2C(F)(F)F)CC1` : what was it?
result: label 1

query: Assay outcome for `CN(C)c1ccc(N=Cc2ccc(N3CCOCC3)cc2)cc1` : what was it?
result: label 0

query: Assay outcome for CN1C(=O)N(C)C2C1NN=c1s/c(=C\c3ccc([N+](=O)[O-])cc3)c(=O)n12 (stereo not given) : what was it?
result: label 0

query: Assay outcome for COc1ccc(-c2nsc3c2NC(=O)CC3c2ccc3c(c2)OCCO3)cc1 (stereo not given) : what was it?
result: label 0

query: Assay outcome for `COc1ccc(/C=C/C(=O)c2c(C)nc3ccccc3c2/C=C/c2ccccc2)cc1O` : what was it?
result: label 0

query: Assay outcome for `CCOc1ccccc1CN1CCc2nc3cc(C(C)(C)C)[nH]n3c(=O)c2C1` : what was it?
result: label 0

query: Assay outcome for CCOc1cc(Cl)c(C(C)NC(=O)c2cccc(OC)c2)cc1OCC (stereo not given) : what was it?
result: label 1

query: Assay outcome for `COc1ccc(C2=Nn3c(NN)nnc3SC2)cc1` : what was it?
result: label 0

query: Assay outcome for `O=c1oc2ccc(Br)cc2c(=O)n1-c1ccc(F)cc1F` : what was it?
result: label 0

----------
- System: KM12 colon
- assay-details: NCI-60 one-dose screen, 48 h (100 = growth as untreated, 0 = no growth, -100 = all killed)
- experimental-context: 10 µM unless noted
About 83,000 compounds went through this panel and 20% of them were active in at least one assay; those are over-represented in the sample as a whole.
Provide the recorded growth for the entries that follow.
Return type: number; implicit unit %.

query: Identify the measured growth of `COc1ccc(-c2cc(=O)c3c(OC)c4ccoc4c(/C=C/C=O)c3o2)cc1` for KM12 colon.
result: 80

query: Identify the measured growth of `O=C(c1ccccc1)N(C(=S)NCCc1ccc(Cl)cc1)c1ccccc1` for KM12 colon.
result: 52.3

query: Identify the measured growth of `O=C(Nc1ccc(-c2nc3ccc(NC(=O)c4ccc(Cl)cc4)cc3[nH]2)cc1)c1ccc(Cl)cc1` for KM12 colon.
result: 39.7

query: Identify the measured growth of `COc1ccc(C(=O)Nc2ccc3nc(N4CCCCC4)cc(C)c3c2)cc1OC` for KM12 colon.
result: 23.7

query: Identify the measured growth of `Cc1sc2ncn(CC(=O)Nc3ccc(S(N)(=O)=O)cc3)c(=O)c2c1C` for KM12 colon.
result: 102

query: Identify the measured growth of `COc1cccc(C(=O)Cn2cc(/C=C(\C#N)S(=O)(=O)c3ccccc3)c3ccccc32)c1` for KM12 colon.
result: 107

query: Identify the measured growth of `COc1cc(/C=C/C(=O)c2ccc(Cl)cc2)cc(CN2CCCCC2)c1O` for KM12 colon.
result: 72.6

query: Identify the measured growth of `COc1ccc(CCN2CCC(CN(C)Cc3cnn(-c4ccccc4)c3)CC2)cc1` for KM12 colon.
result: 22.5

query: Identify the measured growth of `O=Nc1c(O)ccc2ccccc12.O=Nc1c(O)ccc2ccccc12.O=Nc1c([O-])ccc2ccccc12.[Fe+3]` for KM12 colon.
result: 116

query: Identify the measured growth of CC1=NCC2NC(=O)NC(C)=C12 (stereo not drawn) for KM12 colon.
result: 104

query: Identify the measured growth of `COc1c(B(O)O)cccc1-c1nc2ccc3n[nH]c(F)c3c2c2c1CCCC2` for KM12 colon.
result: 40.7

query: Identify the measured growth of `O=Cc1c(OCc2cnnn2CC(=O)Nc2ccc(Br)cc2)ccc2ccccc12` for KM12 colon.
result: 88.7

query: Identify the measured growth of `CCCCCCCCCCOC(=O)c1ccccc1C(=O)OCCCC` for KM12 colon.
result: 105

query: Identify the measured growth of CN1C(=O)N(C)C2Nn3c(s/c(=C\c4ccc(Cl)cc4Cl)c3=O)=NC21 (stereo not drawn) for KM12 colon.
result: 28.7

query: Identify the measured growth of COc1cc(C(C)n2cc(-c3ccccc3)nn2)ccc1OC1CCCCC1 (stereo not drawn) for KM12 colon.
result: 77.9

query: Identify the measured growth of `COC(=O)c1c2c(c(C)[n+]([O-])c1C)C(=O)C=C(NCc1ccc(F)c(F)c1)C2=O` for KM12 colon.
result: -14.9

query: Identify the measured growth of `CCC1=C[C@@H]2CN(C1)Cc1c([nH]c3ccccc13)[C@@](C(=O)OC)(c1cc3c(cc1OC)N(C)[C@H]1[C@@](O)(C(=O)OC)[C@H](OC(C)=O)[C@]4(CC)[C@@H]5C[C@@H]5CN5CC[C@]31[C@@H]54)C2` for KM12 colon.
result: 5.74

query: Identify the measured growth of CC1=CCC(OC(=O)C(C)(C)CCC(O)(C(=O)OC2(C(C)C)CCC3(C)OC3C2)C(C)C)(C(C)C)CC1 (stereo not drawn) for KM12 colon.
result: -79

query: Identify the measured growth of `COC(=O)[C@H]1CCCN1C(=O)[C@H]1CCCN1C(=O)[C@H](Cc1c[nH]c2ccccc12)NC(=S)Nc1cc(C(F)(F)F)cc(C(F)(F)F)c1` for KM12 colon.
result: 36.4

query: Identify the measured growth of `COc1c2ccoc2c(/C=C/C=O)c2oc(-c3ccccc3)cc(=O)c12` for KM12 colon.
result: 91.4

query: Identify the measured growth of `COc1cc(/C=C2\CN(C)C/C(=C\c3cc(CN4CCOCC4)c(O)c(OC)c3)C2=O)cc(CN2CCOCC2)c1O` for KM12 colon.
result: 37.4

query: Identify the measured growth of `COc1ccc(Cn2c(Br)c3c(c2-c2cc(OC)c(OC)c(OC)c2)CCc2sc(NC(=O)c4ccc(OC)cc4)nc2-3)cc1` for KM12 colon.
result: 94.2

query: Identify the measured growth of `CC1=C(C(=O)OCC2CCN(C(=O)OC(C)(C)C)CC2)[C@H](c2cccc(C#N)c2)C2=C(CC(C)(C)CC2=O)N1` for KM12 colon.
result: 42.4

query: Identify the measured growth of `O=c1oc2ccc(I)cc2c(=O)n1-c1ccc(I)cc1F` for KM12 colon.
result: -10.7

query: Identify the measured growth of O=S1(=O)N(Cc2ccccc2)[C@@H](Cc2ccccc2)C2O[C@H]2[C@H](Cc2ccccc2)N1Cc1ccccc1 (stereo partly drawn) for KM12 colon.
result: 40.2

query: Identify the measured growth of `O=C(/C=C/c1ccc(Cl)cc1)c1ccc(Nc2nc(NCCO)nc(Nc3ccc(Cl)cc3)n2)cc1` for KM12 colon.
result: 18.7

query: Identify the measured growth of Cn1c2c(c(=O)[nH]c1=O)NC1=C(C(=O)c3ccccc31)C1(C=C(O)c3ccccc31)N2 (stereo not drawn) for KM12 colon.
result: 104

query: Identify the measured growth of `Cc1ccc2c(n1)C(=O)C(Oc1ccc(Br)cc1)=CC2=O` for KM12 colon.
result: 102

query: Identify the measured growth of `CCOc1ccccc1CN1CCc2nc3cc(C(C)(C)C)[nH]n3c(=O)c2C1` for KM12 colon.
result: 98.2

query: Identify the measured growth of `Cc1c(-c2noc(-c3ccc([N+](=O)[O-])cc3)n2)no[n+]1[O-]` for KM12 colon.
result: 92.2

query: Identify the measured growth of COc1cc2c(cc1OC)C(=O)C(CC1CCN(C(=O)Nc3ccc(C)cc3)CC1)C2 (stereo not drawn) for KM12 colon.
result: 94.3

query: Identify the measured growth of COc1c(B(O)O)cccc1-c1nc2ccc3[nH]ncc3c2c2c1C1CCC2C1 (stereo not drawn) for KM12 colon.
result: 25.3

query: Identify the measured growth of `NCCCNc1nc2ccccc2c2c(=O)c3cc(F)ccc3sc12` for KM12 colon.
result: -73.7

query: Identify the measured growth of `Clc1ccc(Nc2scc3[n+]2CCC3)cc1` for KM12 colon.
result: 97.8

query: Identify the measured growth of `NCCNc1nc2ccc(F)cc2c2c(=O)c3cc(F)ccc3sc12` for KM12 colon.
result: 17.8

query: Identify the measured growth of COc1ccc(C2Nc3nc(OC)n(C)c(=O)c3N=C3c4ccccc4C(=O)C32)cc1 (stereo not drawn) for KM12 colon.
result: 75

query: Identify the measured growth of `O=C1N=c2ccccc2=C1c1sc(=Nc2ccccc2)n(Nc2ccccc2)c1O` for KM12 colon.
result: 103

query: Identify the measured growth of CC1(C)CC2(C)OC2C2(C1)N=NC(=Nc1ccccc1)O2 (stereo not drawn) for KM12 colon.
result: 87.7
